Biological target: CFTR ΔF508 mutant (Homo sapiens, UniProt P13569, DEL508-508)
Construct: expressed in transfected cells; host or cells: CFBE41o- (adenoviral transduction)
Sequence (P13569 with tags, fused parts or gaps DEL508-508): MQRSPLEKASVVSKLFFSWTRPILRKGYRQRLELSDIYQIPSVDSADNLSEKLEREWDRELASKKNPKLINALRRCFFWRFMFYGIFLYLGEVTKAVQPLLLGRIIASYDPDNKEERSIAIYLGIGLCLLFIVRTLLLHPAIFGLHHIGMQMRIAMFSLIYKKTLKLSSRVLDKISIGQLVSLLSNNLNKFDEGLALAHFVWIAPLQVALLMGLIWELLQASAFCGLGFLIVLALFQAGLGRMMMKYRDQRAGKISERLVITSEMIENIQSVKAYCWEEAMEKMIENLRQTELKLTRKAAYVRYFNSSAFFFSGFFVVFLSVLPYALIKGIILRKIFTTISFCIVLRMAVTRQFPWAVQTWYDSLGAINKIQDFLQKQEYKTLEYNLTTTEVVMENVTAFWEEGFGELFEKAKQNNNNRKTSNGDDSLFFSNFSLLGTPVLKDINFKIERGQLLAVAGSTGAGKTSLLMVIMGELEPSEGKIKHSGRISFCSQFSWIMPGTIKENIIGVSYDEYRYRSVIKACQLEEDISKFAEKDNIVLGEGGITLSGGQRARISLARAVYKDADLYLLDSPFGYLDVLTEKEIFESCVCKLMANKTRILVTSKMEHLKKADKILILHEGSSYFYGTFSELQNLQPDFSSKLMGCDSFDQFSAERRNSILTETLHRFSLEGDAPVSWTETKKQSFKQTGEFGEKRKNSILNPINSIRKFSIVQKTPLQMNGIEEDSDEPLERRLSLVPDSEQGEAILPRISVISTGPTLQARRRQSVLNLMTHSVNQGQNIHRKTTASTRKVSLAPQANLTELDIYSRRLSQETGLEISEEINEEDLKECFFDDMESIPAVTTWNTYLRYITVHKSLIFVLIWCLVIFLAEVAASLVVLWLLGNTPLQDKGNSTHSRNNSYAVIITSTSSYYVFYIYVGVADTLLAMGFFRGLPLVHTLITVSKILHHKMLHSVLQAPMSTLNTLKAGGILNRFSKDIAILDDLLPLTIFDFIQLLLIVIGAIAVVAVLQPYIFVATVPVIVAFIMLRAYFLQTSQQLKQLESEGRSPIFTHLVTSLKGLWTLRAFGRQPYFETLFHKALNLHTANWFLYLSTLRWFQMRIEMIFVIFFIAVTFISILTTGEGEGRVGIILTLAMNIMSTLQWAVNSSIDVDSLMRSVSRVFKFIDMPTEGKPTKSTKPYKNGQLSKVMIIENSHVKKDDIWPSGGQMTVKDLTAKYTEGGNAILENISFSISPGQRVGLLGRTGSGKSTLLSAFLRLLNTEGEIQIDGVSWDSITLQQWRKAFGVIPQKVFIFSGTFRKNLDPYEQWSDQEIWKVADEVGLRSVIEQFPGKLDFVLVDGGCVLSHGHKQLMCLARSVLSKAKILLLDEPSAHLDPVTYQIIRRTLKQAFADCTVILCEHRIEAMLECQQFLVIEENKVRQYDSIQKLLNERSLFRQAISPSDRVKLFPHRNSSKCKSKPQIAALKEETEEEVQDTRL
Assay: YFP-halide influx assay for the CFTR-ΔF508 mutation, gluconate buffer
Type: cell-based
Details: CFBE41o- cells, forskolin 10.67 μM
Protocol: The YFP halide influx assay measures the functionality of the cystic fibrosis Transmembrane Conductance regulator (CFTR) channels in the cystic fibrosis bronchial epithelium cell line CFBE41o-. […] It makes use of the observation that the yellow fluorescent protein (YFP) variant YFP H148Q, I152L has its fluorescence substantially quenched by halide ions like Cl^− and I^−. […] The I^−-induced quenching of fluorescence is recorded immediately after injection of I^− for 7 seconds. […]
test.readout: EC50 (nM)

Use the examples below as a reference point.
compound | measured.target | test.readout | value
CCN(C)S(=O)(=O)c1cc(C(N)=O)c(NC(=O)c2ccc(C)s2)s1 [Compound 3] | CFTR ΔF508 mutant (Homo sapiens, UniProt P13569, DEL508-508) | EC50 | 107
Cc1c(S(=O)(=O)N2CCOCC2)sc(NC(=O)c2cc[nH]n2)c1C(N)=O [Compound 90] | CFTR ΔF508 mutant (Homo sapiens, UniProt P13569, DEL508-508) | EC50 | 261
NC(=O)c1cc(S(=O)(=O)N2CCCCC2)sc1NC(=O)c1ccn[nH]1 [Compound 36] | CFTR ΔF508 mutant (Homo sapiens, UniProt P13569, DEL508-508) | EC50 | 92.3
NC(=O)c1cc(S(=O)(=O)N2CCOCC2)sc1NC(=O)c1c(O)cc(F)cc1F [Compound 212] | CFTR ΔF508 mutant (Homo sapiens, UniProt P13569, DEL508-508) | EC50 | 184
COCCCN(C)S(=O)(=O)c1cc(C(N)=O)c(NC(=O)c2cc[nH]n2)s1 [Compound 204] | CFTR ΔF508 mutant (Homo sapiens, UniProt P13569, DEL508-508) | EC50 | 218

[A] NC(=O)c1cc(S(=O)(=O)N2CCC(F)(F)CC2)sc1NC(=O)c1ccccc1F [Compound 66]
[B] NC(=O)c1cc(S(=O)(=O)N2CCCCC2)sc1NC(=O)c1cncs1 [Compound 62]
[C] CC(C)(C)c1cc(C(=O)Nc2sc(S(=O)(=O)N3CCC(F)(F)CC3)cc2C(N)=O)n[nH]1 [Compound 142]
Would you mind ranking these compounds by ascending EC50? Form field (ranking): labels in requested order.
C, A, B

---

target: CFTR ΔF508 mutant (Homo sapiens, UniProt P13569, DEL508-508); construct: expressed in transfected cells; host or cells: CFBE41o- (adenoviral transduction); assay: YFP-halide influx assay for the CFTR-ΔF508 mutation, gluconate buffer; type: cell-based; conditions: CFBE41o- cells, forskolin 10.67 μM
pEC50: −log10 of the molar value.
test.readout: pEC50

Use the examples below as a reference point.
compound | pEC50
CN(Cc1ccncc1)S(=O)(=O)c1cc(C(N)=O)c(NC(=O)c2cc[nH]n2)s1 [Compound 207] | 6.50
COc1ccc(CS(=O)(=O)c2cc(C(N)=O)c(NC(=O)c3ccccc3F)s2)cc1 [Compound 130] | 6.42
CCc1cc(C(=O)Nc2sc(S(=O)(=O)c3ccc(F)cc3)cc2C(N)=O)n[nH]1 [Compound 110] | 6.84
CC(C)(C)C(=O)Nc1sc(S(=O)(=O)N2CCC(F)(F)CC2)cc1C(N)=O [Compound 67] | 6.60
Cn1ccc(C(=O)Nc2sc(S(=O)(=O)N3CCCCC3)cc2C(N)=O)n1 [Compound 30] | 6.04

[P] Cc1cccc(C(=O)Nc2sc(S(=O)(=O)N3CCOCC3)cc2C(N)=O)c1O [Compound 216]
[Q] NC(=O)c1cc(S(=O)(=O)N2CCOCC2)sc1NC(=O)c1ccc(Cl)cc1F [Compound 133]
[R] NC(=O)c1cc(S(=O)(=O)N2CCCCC2)sc1NC(=O)c1ccccc1F [Compound 19]
Order the records so the highest pEC50 appears first and the lowest last. Form field (ranking): labels in requested order.
R, Q, P
